molecular target: IRAK-4 enzyme (Homo sapiens); construct: purchased Millipore, USA; assay: IRAK-4 Biochemical Assay (TR-FRET); details: 1 μM compound, recombinant IRAK-4 kinase, 20 μM ATP
Sequence (Q9NWZ3 whole entry): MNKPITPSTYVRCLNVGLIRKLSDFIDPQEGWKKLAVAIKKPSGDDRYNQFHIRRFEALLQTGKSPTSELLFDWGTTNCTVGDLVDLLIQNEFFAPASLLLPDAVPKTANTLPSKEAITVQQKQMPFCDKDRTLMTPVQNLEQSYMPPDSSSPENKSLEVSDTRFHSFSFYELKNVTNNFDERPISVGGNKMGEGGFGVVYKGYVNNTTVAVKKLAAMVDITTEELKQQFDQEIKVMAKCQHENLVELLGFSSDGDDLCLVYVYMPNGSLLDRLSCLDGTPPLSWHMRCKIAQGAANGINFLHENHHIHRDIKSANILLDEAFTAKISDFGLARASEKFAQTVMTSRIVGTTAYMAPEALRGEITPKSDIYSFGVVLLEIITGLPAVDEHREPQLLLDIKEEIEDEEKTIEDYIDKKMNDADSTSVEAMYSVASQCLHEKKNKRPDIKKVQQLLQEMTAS
metric: inhibition at 1 µM (%)
Give just the number in %; leave the unit off.

Please indicate inhibition at 1 µM recorded for Cc1ccc(C(=O)Nc2cc3cn(C)nc3cc2N2CCCCC2)nc1N1CCC(O)CC1 [Example 60] 97

----------
target: IRAK-4 enzyme (Homo sapiens); construct: purchased Millipore, USA; experiment: IRAK-4 Biochemical Assay (TR-FRET); conditions: 1 μM compound, recombinant IRAK-4 kinase, 20 μM ATP
Structures can show the parent of a compound that is named as a salt.
metric: inhibition at 1 µM (%)
Give just the number in %; leave the unit off.

Cn1cc2cc(NC(=O)c3cccc(-c4ccc(N)nc4)n3)c(N3CCOCC3)cc2n1: 97
Cn1cc2cc(NC(=O)c3cccc(-c4ccnc(N)n4)n3)c(C3CC3)cc2n1: 95
Cn1cc2cc(NC(=O)c3coc(N4CC[C@H](O)C4)n3)c(C3CC3)nc2n1: 65

Tell me its inhibition at 1 µM on IRAK-4 enzyme (Homo sapiens): Cc1nn(C)c2cc(N3CCC(CO)CC3)c(NC(=O)c3coc(-c4cc(N)ncc4Cl)n3)cc12 [Example 38, hydrochloride] 90

Tell me its inhibition at 1 µM on IRAK-4 enzyme (Homo sapiens): Cc1nn(C)c2cc(N3CCC(CO)CC3)c(NC(=O)c3coc(-c4cc(F)c(=O)n(C)c4)n3)cc12 [Example 11, hydrochloride] 59

Tell me its inhibition at 1 µM on IRAK-4 enzyme (Homo sapiens): C=CCOCC1CCN(c2cc3c(cc2NC(=O)c2coc(-c4ccnc(N)c4)n2)c(C)nn3C)CC1 96

Tell me its inhibition at 1 µM on IRAK-4 enzyme (Homo sapiens): Cn1cc2cc(NC(=O)c3cccc(N4CC[C@@H](O)C4)n3)c(N3CCCCC3)cc2n1 101
